Quick reference: apparent Kd (screen) of the listed items.
Target: T1, TNFR1 (Homo sapiens, UniProt P19438)
T1 chain: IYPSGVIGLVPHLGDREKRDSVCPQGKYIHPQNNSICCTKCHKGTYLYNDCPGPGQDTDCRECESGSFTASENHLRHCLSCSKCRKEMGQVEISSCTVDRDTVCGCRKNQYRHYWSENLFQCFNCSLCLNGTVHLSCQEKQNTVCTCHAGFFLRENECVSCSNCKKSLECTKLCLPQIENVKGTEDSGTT
Test: yeast display SC50
measured_property: apparent Kd (screen) (nM)

binder | unit_abbrev | reported
D56Q (designed binder) MTLQELLREEALRRAEAEAFRYALELLAEKFPEQKEYLLDLAEEIESQIRSLSGVQVEDVRKFLDKEWAWVKELLAEHPAELAEVEAARAARLAELRAEVEAKVAA | nM | 1.4
A11C (designed binder) MTLQELLREECLRRAEAEAFRYALELLAEKFPEQKEYLLDLAEEIESQIRSLSGVDVEDVRKFLDKEWAWVKELLAEHPAELAEVEAARAARLAELRAEVEAKVAA | nM | 0.405
W70A (designed binder) MTLQELLREEALRRAEAEAFRYALELLAEKFPEQKEYLLDLAEEIESQIRSLSGVDVEDVRKFLDKEWAAVKELLAEHPAELAEVEAARAARLAELRAEVEAKVAA | nM | 22.2
A42Q (designed binder) MTLQELLREEALRRAEAEAFRYALELLAEKFPEQKEYLLDLQEEIESQIRSLSGVDVEDVRKFLDKEWAWVKELLAEHPAELAEVEAARAARLAELRAEVEAKVAA | nM | 2.05
D65H (designed binder) MTLQELLREEALRRAEAEAFRYALELLAEKFPEQKEYLLDLAEEIESQIRSLSGVDVEDVRKFLHKEWAWVKELLAEHPAELAEVEAARAARLAELRAEVEAKVAA | nM | 0.718
L12I (designed binder) MTLQELLREEAIRRAEAEAFRYALELLAEKFPEQKEYLLDLAEEIESQIRSLSGVDVEDVRKFLDKEWAWVKELLAEHPAELAEVEAARAARLAELRAEVEAKVAA | nM | 0.539
E73L (designed binder) MTLQELLREEALRRAEAEAFRYALELLAEKFPEQKEYLLDLAEEIESQIRSLSGVDVEDVRKFLDKEWAWVKLLLAEHPAELAEVEAARAARLAELRAEVEAKVAA | nM | 0.653
E81D (designed binder) MTLQELLREEALRRAEAEAFRYALELLAEKFPEQKEYLLDLAEEIESQIRSLSGVDVEDVRKFLDKEWAWVKELLAEHPADLAEVEAARAARLAELRAEVEAKVAA | nM | 0.718

Sourced from paper PMC12416549
